Molecular target: UniProtKB O42275
Sequence (O42275 24-633): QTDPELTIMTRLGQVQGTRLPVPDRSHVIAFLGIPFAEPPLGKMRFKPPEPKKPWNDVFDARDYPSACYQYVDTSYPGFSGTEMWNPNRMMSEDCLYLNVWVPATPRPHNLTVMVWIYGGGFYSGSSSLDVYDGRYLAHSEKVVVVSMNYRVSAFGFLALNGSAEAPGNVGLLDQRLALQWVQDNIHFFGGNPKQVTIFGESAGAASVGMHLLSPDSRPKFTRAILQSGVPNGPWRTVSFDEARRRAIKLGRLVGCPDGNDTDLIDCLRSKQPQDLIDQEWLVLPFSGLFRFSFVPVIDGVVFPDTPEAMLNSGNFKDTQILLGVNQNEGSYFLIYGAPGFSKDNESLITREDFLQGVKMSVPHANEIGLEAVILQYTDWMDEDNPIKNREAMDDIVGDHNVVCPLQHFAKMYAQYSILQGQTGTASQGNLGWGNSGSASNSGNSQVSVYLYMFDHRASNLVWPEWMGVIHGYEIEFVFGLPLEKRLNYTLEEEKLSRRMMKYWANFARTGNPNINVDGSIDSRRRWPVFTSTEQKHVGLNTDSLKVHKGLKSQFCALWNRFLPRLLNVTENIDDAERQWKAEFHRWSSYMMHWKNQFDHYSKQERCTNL
Test: AChE inhibition and enzyme kinetics, Ellman assay
Assay type: biochemical, electric eel
Details: IC50 (μM) ± SD EeAChE, Ellman assay
parameter.measured: IC50 (µM)
// return numeric value only (unit: µM, not printed)

Query :: For O=c1ccc2ccc(OCc3cn(Cc4ccccc4OC(F)(F)F)nn3)cc2o1 [19d] , what is its reported IC50?
Result :: 52.5

Query :: For C[n+]1c2ccccc2cc2[n-]c3ccccc3c21 [cryptolepine, reference compound] , what is its reported IC50?
Result :: 0.33

Query :: For COc1cc2c(C)cc(=O)oc2cc1OCc1cn(Cc2ccccc2C(F)(F)F)nn1 [16c] , what is its reported IC50?
Result :: 142

Query :: For COc1cccc(Cn2cc(COc3cc4oc(=O)cc(C)c4cc3OC)nn2)c1 [16a] , what is its reported IC50?
Result :: 164

Query :: For COc1cc2c(C)cc(=O)oc2cc1OCc1cn(Cc2ccccc2OC(F)(F)F)nn1 [16d] , what is its reported IC50?
Result :: 167

Query :: For O=c1cc(OCc2cn(Cc3ccccc3C(F)(F)F)nn2)c2ccccc2o1 , what is its reported IC50?
Result :: 4.83

Query :: For COc1cccc(Cn2cc(COc3ccc4ccc(=O)oc4c3C(C)=O)nn2)c1 [10a] , what is its reported IC50?
Result :: 8.36

Query :: For COc1cc(Cn2cc(COc3ccc4ccc(=O)oc4c3)nn2)cc(OC)c1 [19b] , what is its reported IC50?
Result :: 59.7

Query :: For COc1cc(Cn2cc(COc3cc4oc(=O)cc(C)c4cc3OC)nn2)cc(OC)c1 [16b] , what is its reported IC50?
Result :: 151

The measurements presented in this section are drawn from paper PMC10061512.
